ASSAY INFO: MTT cytotoxicity assay
Format: cell-based, human
RECORDED CONDITIONS: human, HEK293T cells, OD450, cytotoxicity (Fig 2a), replicates
Experimental: To determine the cytotoxicity of the peptides, we used the MTT (3-(4,5)-dimethylthiahiazo (-z-y1)-3,5-di-phenytetrazoliumromide) dye reduction assay against HEK293T cells. In brief, the 100 μL of cells in 96-well plate were incubated for 24 h at 37 °C, 5% CO2, and then peptide solutions (concentrations ranging from 100 to 0.39 μM) were added and further incubated for 72 h. MTT solution (5 mg/mL) was added and further incubated for 4 h. […]
Non-standard residues stand in square brackets, D forms with d. Residues, ends and D or L forms follow the SMILES beside them.

MOLECULE | UNIT NAME | viability at 72 h, 25 µM
CC[C@H](C)[C@H](NC(=O)[C@H](CCCNC(=N)N)NC(=O)[C@H](CCCNC(=N)N)NC(=O)[C@H](CC(C)C)NC(=O)[C@H](Cc1ccccc1)NC(=O)[C@H](Cc1ccccc1)NC(=O)[C@H](Cc1ccccc1)NC(=O)[C@@H](N)Cc1ccccc1)C(=O)N[C@@H](Cc1ccccc1)C(=O)N[C@@H](CCCNC(=N)N)C(=O)N[C@@H](CCCNC(=N)N)C(N)=O [F-SHf(R^5)-RR] (H-FFFFLRRIFRR-NH2; N-terminus assumed) | % | 3.79
CC[C@H](C)[C@H](NC(=O)[C@H](CCCNC(=N)N)NC(=O)[C@H](CCCNC(=N)N)NC(=O)[C@H](CC(C)C)NC(=O)[C@H](Cc1ccccc1)NC(=O)[C@H](Cc1ccccc1)NC(=O)[C@H](Cc1ccccc1)NC(=O)[C@@H](N)Cc1ccccc1)C(=O)N[C@@H](Cc1ccccc1)C(=O)N[C@@H](CCCNC(=N)N)C(N)=O [F-SHf(R^5)-R] (H-FFFFLRRIFR-NH2; N-terminus assumed) | % | 3.84
CC[C@@H](C)[C@@H](NC(=O)[C@@H](Cc1ccccc1)NC(=O)[C@@H](Cc1ccccc1)NC(=O)[C@@H](Cc1ccccc1)NC(=O)[C@H](N)Cc1ccccc1)C(=O)N[C@H](CCCNC(=N)N)C(=O)N[C@H](CCCNC(=N)N)C(=O)N[C@H](CC(C)C)C(=O)N[C@H](Cc1ccccc1)C(=O)N[C@H](CCCNC(=N)N)C(N)=O [RI-HT2] (H-[dF][dF][dF][dF][dI][dR][dR][dL][dF][dR]-NH2; N-terminus assumed) | % | 84.2
CC[C@H](C)[C@H](NC(=O)[C@H](CCCNC(=N)N)NC(=O)[C@H](CCCNC(=N)N)NC(=O)[C@H](CC(C)C)NC(=O)[C@H](Cc1ccccc1)NC(=O)[C@@H](N)CCCNC(=N)N)C(=O)N[C@@H](Cc1ccccc1)C(=O)N[C@@H](Cc1ccccc1)C(=O)N[C@@H](Cc1ccccc1)C(=O)N[C@@H](Cc1ccccc1)C(N)=O [HT2] (H-RFLRRIFFFF-NH2) | % | 93.2
CC[C@H](C)[C@H](NC(=O)[C@H](CCCNC(=N)N)NC(=O)[C@H](CCCNC(=N)N)NC(=O)[C@H](CC(C)C)NC(=O)[C@H](Cc1ccccc1)NC(=O)[C@H](CCCNC(=N)N)NC(=O)[C@@H](N)CCCNC(=N)N)C(=O)N[C@@H](Cc1ccccc1)C(=O)N[C@@H](Cc1ccccc1)C(=O)N[C@@H](Cc1ccccc1)C(=O)N[C@@H](Cc1ccccc1)C(N)=O [HT3] (H-RRFLRRIFFFF-NH2; N-terminus assumed) | % | 91.4
CC[C@H](C)[C@H](NC(=O)[C@H](CCCNC(=N)N)NC(=O)[C@H](CCCNC(=N)N)NC(=O)[C@H](CC(C)C)NC(=O)[C@H](Cc1ccccc1)NC(=O)[C@@H](N)CCCNC(=N)N)C(=O)N[C@@H](Cc1ccccc1)C(=O)N[C@@H](CCCNC(=N)N)C(=O)N[C@@H](Cc1ccccc1)C(=O)N[C@@H](Cc1ccccc1)C(=O)N[C@@H](Cc1ccccc1)C(N)=O [HT4] (H-RFLRRIFRFFF-NH2) | % | 5.83
